system: YT (IL-2 2.5 ng/mL); assay: relative IC50 (inflection point of fitted viability curve, relative to fitted max inhibition); higher = less sensitive; details: 72 h
observable: relative IC50 (nM)

NC(=O)Nc1cc(-c2cccc(F)c2)sc1C(=O)N[C@H]1CCCNC1 [AZD7762] | 145
CO[C@H](C(=O)[C@@H](O)[C@@H](C)O)[C@@H]1Cc2cc3cc(O[C@H]4C[C@@H](O[C@@H]5C[C@@H](O)[C@H](O)[C@@H](C)O5)[C@H](O)[C@@H](C)O4)c(C)c(O)c3c(O)c2C(=O)[C@H]1O[C@H]1C[C@@H](O[C@@H]2C[C@@H](O)[C@@H](O[C@@H]3C[C@](C)(O)[C@H](O)[C@@H](C)O3)[C@@H](C)O2)[C@H](O)[C@@H](C)O1 [Plicamycin] | 31.6
CCCCCCCCc1ccc(CCC(N)(CO)CO)cc1 [Fingolimod] | 2450
CC(=O)OC[C@H]1O[C@@H]([S-])[C@H](OC(C)=O)[C@@H](OC(C)=O)[C@@H]1OC(C)=O.CCP(CC)CC.[Au+] [Auranofin] | 824
CNC(=O)c1ccccc1Sc1ccc2c(/C=C/c3ccccn3)n[nH]c2c1 [Axitinib] | 1200
Nc1nc(Nc2ccc3c(c2)CC[C@@H](N2CCCC2)CC3)nn1-c1cc2c(nn1)-c1ccccc1CCC2 [BGB324] | 2250
Cc1c(CN2CCN(C(=O)[C@H](C)O)CC2)sc2c(N3CCOCC3)nc(-c3cnc(N)nc3)nc12 [Apitolisib] | 622

---

# key: entry, value: percent inhibition of viability
tested on: IMC-1 (IL-2 20 ng/mL); test: percent inhibition of viability; higher = more inhibition; settings: 72 h; 1 nM
observable: percent inhibition of viability (%)

N#CCNC(=O)c1ccc(-c2ccnc(Nc3ccc(N4CCOCC4)cc3)n2)cc1 [Momelotinib] (max concentration tested 10000 nM) | -3.83
O=C(O)CC[C@H]1CC[C@@](c2cc(F)ccc2F)(S(=O)(=O)c2ccc(Cl)cc2)CC1 [MK-0752] (max concentration tested 1000 nM) | -1.62
O=C(NC[C@H](O)CO)c1ccncc1Nc1ccc(I)cc1F [Pimasertib] (max concentration tested 10000 nM) | -6.58
CC1(COc2ccc3c(c2)ncn3-c2ccc3cccc(N4CCC(N)CC4)c3n2)COC1 [Crenolanib] (max concentration tested 10000 nM) | -5.33
CC(C)N(C[C@H]1O[C@@H](n2cnc3c(N)ncnc32)[C@H](O)[C@@H]1O)[C@H]1C[C@@H](CCc2nc3cc(C(C)(C)C)ccc3[nH]2)C1 [Pinometostat] (max concentration tested 1000 nM) | -4.07
O=C1NC(=O)[C@@H](c2cn3c4c(cccc24)CCC3)[C@@H]1c1c[nH]c2ccccc12 [Tivantinib] (max concentration tested 1000 nM) | -7.71

---

# key: entry, value: percent inhibition of viability
test system: DERL-7 (IL-2 2.5 ng/mL); assay: percent inhibition of viability; higher = more inhibition; conditions: 72 h; 100 nM
observable: percent inhibition of viability (%)

CCC1(c2ccc(N)cc2)CCC(=O)NC1=O (centres undefined) [Aminoglutethimide] (max concentration tested 10000 nM) | 7.28
CCn1c(C(=O)N(C2CC2)C2CC2)cc2c3c(ncn3C)c(Nc3cc(C)n(C)n3)nc21 (max concentration tested 10000 nM) | 1.97
C[C@]12CC[C@@H]3c4ccc(O)cc4C[C@@H](CCCCCCCCC[S+]([O-])CCCC(F)(F)C(F)(F)F)[C@H]3[C@@H]1CC[C@@H]2O (some centres undefined) [Fulvestrant] (max concentration tested 1000 nM) | -1.33
Nc1nc(Nc2ccc3c(c2)CC[C@@H](N2CCCC2)CC3)nn1-c1cc2c(nn1)-c1ccccc1CCC2 [BGB324] (max concentration tested 10000 nM) | 13.9

---

system: normal primary NK cells, pool 1 (3 donors) (IL-2 2.5 ng/mL); assay: percent inhibition of viability; higher = more inhibition; conditions: 72 h; 1000 nM
# key: entry, value: percent inhibition of viability
observable: percent inhibition of viability (%)

C=CCn1c(=O)c2cnc(Nc3ccc(N4CCN(C)CC4)cc3)nc2n1-c1cccc(C(C)(C)O)n1 [MK1775] (max concentration tested 10000 nM) | 9.3
CN1CCN(c2nc(C3=C(c4c[nH]c5ccccc45)C(=O)NC3=O)c3ccccc3n2)CC1 [Sotrastaurin] (max concentration tested 10000 nM) | 27.9
c1ccc(Cn2c(-c3ccc(OC[C@H](C4CCNCC4)n4c(-c5ccccc5)nc5ccccc54)cc3)nc3ccccc32)cc1 [deltarasin] (max concentration tested 10000 nM) | 3.6
CS(=O)(=O)N1CCN(Cc2cc3nc(-c4cccc5[nH]ncc45)nc(N4CCOCC4)c3s2)CC1 [Pictilisib] (max concentration tested 10000 nM) | 32.2
O=C(NC[C@H](O)CO)c1ccncc1Nc1ccc(I)cc1F [Pimasertib] (max concentration tested 10000 nM) | 15.8
C[C@]12O[C@H](C[C@]1(O)CO)n1c3ccccc3c3c4c(c5c6ccccc6n2c5c31)CNC4=O [Lestaurtinib] (max concentration tested 1000 nM) | 75.2
CCN(CC)CCOc1ccc(C(=C(Cl)c2ccccc2)c2ccccc2)cc1 [Clomifene] (max concentration tested 10000 nM) | 6.72

---

system: YT (IL-2 2.5 ng/mL); test: drug sensitivity score (DSS) (DSS units); higher = more sensitive; extreme values may be limits of the assay; conditions: 72 h
# key: entry, value: drug sensitivity score
observable: drug sensitivity score

COc1cc(CCc2cc(NC(=O)c3ccc(N4CC(C)NC(C)C4)cc3)n[nH]2)cc(OC)c1 (configuration not stated) [AZD4547] (max concentration tested 1000 nM) | 1.18
N#CC1(c2ccc(NC(=O)c3cccnc3NCc3ccncc3)cc2)CCCC1 [Apatinib] (max concentration tested 10000 nM) | 0
C[C@]12CC[C@@H]3c4ccc(O)cc4C[C@@H](CCCCCCCCC[S+]([O-])CCCC(F)(F)C(F)(F)F)[C@H]3[C@@H]1CC[C@@H]2O (some centres not stated) [Fulvestrant] (max concentration tested 1000 nM) | 1.09
Nc1ccccc1NC(=O)c1ccc(CNc2nccc(-c3cccnc3)n2)cc1 [Mocetinostat] (max concentration tested 10000 nM) | 11.6
CO[C@H]1C[C@@H]2CC[C@@H](C)[C@@](O)(O2)C(=O)C(=O)N2CCCC[C@H]2C(=O)O[C@H]([C@H](C)C[C@@H]2CC[C@@H](OCCO)[C@H](OC)C2)CC(=O)[C@H](C)/C=C(\C)[C@@H](O)[C@@H](OC)C(=O)[C@H](C)C[C@H](C)/C=C/C=C/C=C/1C [Everolimus] (max concentration tested 100 nM) | 8.98
Cn1c(Nc2ccc(C(F)(F)F)cc2)nc2cc(Oc3ccnc(-c4ncc(C(F)(F)F)[nH]4)c3)ccc21 [RAF265] (max concentration tested 1000 nM) | 0.52
CN1CCN(c2nc(C3=C(c4c[nH]c5ccccc45)C(=O)NC3=O)c3ccccc3n2)CC1 [Sotrastaurin] (max concentration tested 10000 nM) | 3.65
C=CCN(/C=C1/C(=O)O[C@H](COC)[C@@]2(C)C1=C(O)C(=O)C1=C2[C@H](OC(C)=O)C[C@]2(C)C(=O)CC[C@@H]12)CC=C [Sonolisib] (max concentration tested 10000 nM) | 1.45
CC(=O)OC[C@H]1O[C@@H]([S-])[C@H](OC(C)=O)[C@@H](OC(C)=O)[C@@H]1OC(C)=O.CCP(CC)CC.[Au+] [Auranofin] (max concentration tested 2500 nM) | 5.39
O=C(O)c1ccc(-c2c[nH]c3ncc(-c4ccccc4)cc23)cc1C1CCCC1 (max concentration tested 10000 nM) | 3.73
c1ccc(Cn2c(-c3ccc(OC[C@H](C4CCNCC4)n4c(-c5ccccc5)nc5ccccc54)cc3)nc3ccccc32)cc1 [deltarasin] (max concentration tested 10000 nM) | 6.49
O=C(CCCCCCNC(=O)c1cnc(N(c2ccccc2)c2ccccc2)nc1)NO [Rocilinostat] (max concentration tested 10000 nM) | 8.53
CC(C)n1cnc2c(NCCc3ccc(O)cc3)nc(-c3csc4ccccc34)nc21 [StemRegenin 1] (max concentration tested 10000 nM) | 4.83
Cn1c(=O)n(-c2ccc(C(C)(C)C#N)cc2)c2c3cc(-c4cnc5ccccc5c4)ccc3ncc21 [Dactolisib] (max concentration tested 1000 nM) | 12.7
Cc1cc2c(F)c(Oc3ncnn4cc(OC[C@@H](C)O)c(C)c34)ccc2[nH]1 [Brivanib] (max concentration tested 1000 nM) | 0
CC(C)[C@H](C(=O)Nc1ccc(C(=O)NO)cc1)c1ccccc1 [AR-42] (max concentration tested 10000 nM) | 14.9
CS(=O)(=O)N1CCN(Cc2cc3nc(-c4cccc5[nH]ncc45)nc(N4CCOCC4)c3s2)CC1 [Pictilisib] (max concentration tested 10000 nM) | 6.22

---

# key: entry, value: percent inhibition of viability
tested on: normal primary NK cells, pool 1 (3 donors), resting (IL-2 0 ng/mL); experiment: percent inhibition of viability; higher = more inhibition; settings: 72 h; 100 nM
observable: percent inhibition of viability (%)

O=C(O)CC[C@H]1CC[C@@](c2cc(F)ccc2F)(S(=O)(=O)c2ccc(Cl)cc2)CC1 [MK-0752] (max concentration tested 1000 nM) | -13.1
Cc1c(N)nc([C@H](CC(N)=O)NC[C@H](N)C(N)=O)nc1C(=O)N[C@H](C(=O)N[C@H](C)[C@@H](O)[C@H](C)C(=O)N[C@H](C(=O)NCCc1nc(-c2nc(C(=O)NCCC[S+](C)C)cs2)cs1)[C@@H](C)O)[C@@H](OC1OC(CO)C(O)C(O)C1OC1OC(CO)C(O)C(OC(N)=O)C1O)c1cnc[nH]1 (stereo partly drawn) [Bleomycin] (max concentration tested 10000 nM) | -9.89
CC/C(=C(\c1ccccc1)c1ccc(OCCN(C)C)cc1)c1ccccc1 [Tamoxifen] (max concentration tested 10000 nM) | 15.1
